All values here come from the supplement of paper PMC9265050.

tested on: SW480; experiment: drug sensitivity score (DSS, integrated dose-response area); higher = more sensitive (stronger viability reduction); extreme values may be limits of the assay; details: shRNA: SND1 shRNA1 (SND1 silenced)
REPORTED_PROPERTY: drug sensitivity score (DSS)
The reply should be a number in DSS, with the unit left off.

Example entries and their recorded answers appear below.
CC[C@H](CC#N)OC(=O)N[C@@H](C)c1cccc(NC(=O)Nc2ccc(-c3cnco3)c(OC)c2)c1    13.4
Cc1ccc(NC(=O)c2ccc(CN3CC[C@H](N(C)C)C3)c(C(F)(F)F)c2)cc1Nc1nccc(-c2cncnc2)n1    0.3
CC1=C(/C=C/C(C)=C/C=C/C(C)=C/C(=O)O)C(C)(C)CCC1    0
CC(C)(O)CC(=O)NCCn1ccc2ncnc(Nc3ccc(Oc4cccc(C(F)(F)F)c4)c(Cl)c3)c21    0
Cc1cn(-c2cc(NC(=O)c3ccc(C)c(Nc4nccc(-c5cccnc5)n4)c3)cc(C(F)(F)F)c2)cn1    2.6
CNC(=O)[C@@H](NC(=O)[C@H](CC(C)C)[C@H](O)C(=O)NO)C(C)(C)C    0
Cc1cc(-c2nc(-c3ccc(OC(F)(F)F)cc3)no2)nn1Cc1ccnc(N2CCN(C3CC3)CC2)c1    0.3
Cc1sc2c(c1C)C(c1ccc(Cl)cc1)=N[C@@H](CC(=O)Nc1ccc(O)cc1)c1nnc(C)n1-2    1.9
Cc1ccc(NC(=O)c2ccc(CN3CCN(C)CC3)cc2)cc1Nc1nc(-c2cccnc2)cs1    3.1

**Q:** # query: drug sensitivity score of entry COc1cc(C(=O)NC2CCN(C)CC2)c(F)cc1Nc1ncc2c(n1)N(C1CCCC1)CC(F)(F)C(=O)N2C
**A:** 0.1

----------
system: SW480; test: drug sensitivity score (DSS, integrated dose-response area); higher = more sensitive (stronger viability reduction); extreme values may be limits of the assay; details: shRNA: SND1 shRNA1 (SND1 silenced)
Below, each of the compounds is paired with its reported drug sensitivity score value.

Example entries and their recorded answers appear below.
O=[N+]([O-])c1ccc2c(c1)S(=O)(=O)C=C2 [Stattic]    16 DSS
COc1ccc(-c2ccc3c(N4CCOC[C@@H]4C)nc(N4CCOC[C@@H]4C)nc3n2)cc1CO [AZD8055]    20.6 DSS
O=c1sn(-c2cccc3ccccc23)c(=O)n1Cc1ccccc1 [Tideglusib]    0.1 DSS

**Q:** # query: drug sensitivity score of entry Nc1ccccc1NC(=O)c1ccc(CNC(=O)OCc2cccnc2)cc1 [Entinostat]
**A:** 5.3 DSS

**Q:** # query: drug sensitivity score of entry CN(C[C@@H]1COCCO1)S(=O)(=O)Nc1ccc2ccc3ncc(-c4cnn(C)c4)cc3c(=O)c2c1 [MK-2461]
**A:** 0.6 DSS

**Q:** # query: drug sensitivity score of entry Oc1nc(-c2ccc(C(F)(F)F)cc2)nc2c1CSCC2 [XAV-939]
**A:** 3.9 DSS

**Q:** # query: drug sensitivity score of entry Cc1cc([C@@H](C)Nc2ccccc2C(=O)O)c2nc(N3CCOCC3)cc(=O)n2c1 [AZD-6482]
**A:** 0 DSS

**Q:** # query: drug sensitivity score of entry O=C(c1ccc(OCCN2CCCCC2)cc1)c1c(-c2ccc(O)cc2)sc2cc(O)ccc12 [Raloxifene]
**A:** 6.6 DSS

**Q:** # query: drug sensitivity score of entry Oc1ncnc2[nH]ncc12 [Allopurinol]
**A:** 0.2 DSS

----------
system: SW480; assay: drug sensitivity score (DSS, integrated dose-response area); higher = more sensitive (stronger viability reduction); extreme values may be limits of the assay; conditions: shRNA: SND1 shRNA1 (SND1 silenced)
Below, each of the compounds is paired with its reported drug sensitivity score value.
The reply should be a number in DSS, with the unit left off.

CC(C)C[C@H](NC(=O)[C@@H](COC(C)(C)C)NC(=O)[C@H](Cc1ccc(O)cc1)NC(=O)[C@H](CO)NC(=O)[C@H](Cc1c[nH]c2ccccc12)NC(=O)[C@H](Cc1cnc[nH]1)NC(=O)[C@@H]1CCC(=O)N1)C(=O)N[C@@H](CCCNC(=N)N)C(=O)N1CCC[C@H]1C(=O)NNC(N)=O [Goserelin]    0
CCCCCCCCCCCCCCCCCCOP(=O)([O-])OC1CC[N+](C)(C)CC1 [Perifosine]    2.3
O=C(NC[C@H](O)CO)c1ccncc1Nc1ccc(I)cc1F [Pimasertib]    26.3
CNC(=O)c1cc(Oc2ccc(NC(=O)Nc3ccc(Cl)c(C(F)(F)F)c3)cc2)ccn1 [Sorafenib]    0
N#Cc1ccc(C(c2ccc(C#N)cc2)n2cncn2)cc1 [Letrozole]    0

**Q:** # query: drug sensitivity score of entry CC(C)n1cnc2c(NCCc3ccc(O)cc3)nc(-c3csc4ccccc34)nc21 [StemRegenin 1]
**A:** 1.3

**Q:** # query: drug sensitivity score of entry CO[C@H]1C[C@@H]2CC[C@@H](C)[C@@](O)(O2)C(=O)C(=O)N2CCCC[C@H]2C(=O)O[C@H]([C@H](C)C[C@@H]2CC[C@@H](OCCO)[C@H](OC)C2)CC(=O)[C@H](C)/C=C(\C)[C@@H](O)[C@@H](OC)C(=O)[C@H](C)C[C@H](C)/C=C/C=C/C=C/1C [Everolimus]
**A:** 7.5

**Q:** # query: drug sensitivity score of entry Cc1cc(Nc2nc(N[C@@H](C)c3ncc(F)cn3)ncc2Cl)[nH]n1 [AZD1480]
**A:** 0.6

----------
test system: SW480; test: drug sensitivity score (DSS, integrated dose-response area); higher = more sensitive (stronger viability reduction); extreme values may be limits of the assay; details: shRNA: SND1 shRNA1 (SND1 silenced)
Below, each of the molecules is paired with its reported drug sensitivity score value.
The reply should be a number in DSS, with the unit left off.

**Q:** # query: drug sensitivity score of entry FC(F)(F)c1ccc(CNc2ccc(Cc3c[nH]c4ncc(Cl)cc34)cn2)cn1
**A:** 0.3

**Q:** # query: drug sensitivity score of entry NC(=O)NO [Hydroxyurea]
**A:** 0

**Q:** # query: drug sensitivity score of entry CCN(CC)Cc1ccc2cc(COC(=O)Nc3ccc(C(=O)NO)cc3)ccc2c1
**A:** 6.6

**Q:** # query: drug sensitivity score of entry CNC(=O)c1ccccc1Sc1ccc2c(/C=C/c3ccccn3)n[nH]c2c1
**A:** 6

----------
Below, each of the molecules is paired with its reported drug sensitivity score value.
system: SW480; assay: drug sensitivity score (DSS, integrated dose-response area); higher = more sensitive (stronger viability reduction); extreme values may be limits of the assay; conditions: shRNA: SND1 shRNA1 (SND1 silenced)
The reply should be a number in DSS, with the unit left off.

**Q:** # query: drug sensitivity score of entry CC(C)c1cc(-c2n[nH]c(=O)n2-c2ccc3c(ccn3C)c2)c(O)cc1O
**A:** 12.7

**Q:** # query: drug sensitivity score of entry N#Cc1ccc(COC[C@H]2O[C@@H](n3c(NCc4ccc(Cl)c(Cl)c4)nc4c(N)ncnc43)[C@H](O)[C@@H]2O)cc1
**A:** 0

**Q:** # query: drug sensitivity score of entry CO[C@H]1C[C@@H]2CC[C@@H](C)[C@@](O)(O2)C(=O)C(=O)N2CCCC[C@H]2C(=O)O[C@H]([C@H](C)C[C@@H]2CC[C@@H](O)[C@H](OC)C2)CC(=O)[C@H](C)/C=C(\C)[C@@H](O)[C@@H](OC)C(=O)[C@H](C)C[C@H](C)/C=C/C=C/C=C/1C
**A:** 7.8

**Q:** # query: drug sensitivity score of entry CS(=O)(=O)c1ccc(C(=O)Nc2ccc(Cl)c(-c3ccccn3)c2)c(Cl)c1
**A:** 0

**Q:** # query: drug sensitivity score of entry CO[C@H]1C(=O)[C@]2(C)[C@@H](OC)C[C@H]3OC[C@@]3(OC(C)=O)[C@H]2[C@H](OC(=O)c2ccccc2)[C@]2(O)C[C@H](OC(=O)[C@H](O)[C@@H](NC(=O)OC(C)(C)C)c3ccccc3)C(C)=C1C2(C)C
**A:** 18.7

**Q:** # query: drug sensitivity score of entry CN(C)C(=O)c1cc2cnc(Nc3ccc(N4CCNCC4)cn3)nc2n1C1CCCC1
**A:** 3.8

**Q:** # query: drug sensitivity score of entry O=C(c1ccc(F)c(F)c1Nc1ccc(I)cc1F)N1CC(O)([C@@H]2CCCCN2)C1
**A:** 13.3

**Q:** # query: drug sensitivity score of entry COc1nc(N)nc2c1ncn2[C@@H]1O[C@H](CO)[C@@H](O)[C@@H]1O
**A:** 0

**Q:** # query: drug sensitivity score of entry Cn1cc(-c2ccc3nnc(C(F)(F)c4ccc5ncccc5c4)n3n2)cn1
**A:** 0

**Q:** # query: drug sensitivity score of entry CC1(COc2ccc3c(c2)ncn3-c2ccc3cccc(N4CCC(N)CC4)c3n2)COC1
**A:** 11.9

**Q:** # query: drug sensitivity score of entry CN(C)Cc1c(C(=O)NCCOc2ccc(C(=O)NO)cc2)oc2ccccc12
**A:** 21.3
